molecular target: GST-tagged PP2A core enzyme (AC heterodimer) (human, UniProt P30153;P67775); assay: pull-down
Sequence (P30153 whole entry, chain 1 of 2): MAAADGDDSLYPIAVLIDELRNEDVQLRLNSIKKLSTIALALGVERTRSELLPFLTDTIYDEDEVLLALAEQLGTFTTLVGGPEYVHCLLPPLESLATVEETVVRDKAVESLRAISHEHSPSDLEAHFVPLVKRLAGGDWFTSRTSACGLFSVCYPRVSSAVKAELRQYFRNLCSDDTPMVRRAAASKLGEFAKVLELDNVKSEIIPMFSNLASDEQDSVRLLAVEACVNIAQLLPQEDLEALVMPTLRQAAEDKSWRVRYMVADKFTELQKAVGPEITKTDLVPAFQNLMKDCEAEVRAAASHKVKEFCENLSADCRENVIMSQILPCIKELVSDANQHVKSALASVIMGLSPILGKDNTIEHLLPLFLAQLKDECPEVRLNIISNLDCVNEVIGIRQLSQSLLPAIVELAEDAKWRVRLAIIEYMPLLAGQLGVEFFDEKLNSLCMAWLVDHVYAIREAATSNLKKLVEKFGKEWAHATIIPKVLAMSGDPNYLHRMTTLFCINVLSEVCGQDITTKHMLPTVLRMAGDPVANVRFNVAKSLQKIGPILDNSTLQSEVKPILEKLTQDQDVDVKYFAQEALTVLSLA
Sequence (P67775 whole entry, chain 2 of 2): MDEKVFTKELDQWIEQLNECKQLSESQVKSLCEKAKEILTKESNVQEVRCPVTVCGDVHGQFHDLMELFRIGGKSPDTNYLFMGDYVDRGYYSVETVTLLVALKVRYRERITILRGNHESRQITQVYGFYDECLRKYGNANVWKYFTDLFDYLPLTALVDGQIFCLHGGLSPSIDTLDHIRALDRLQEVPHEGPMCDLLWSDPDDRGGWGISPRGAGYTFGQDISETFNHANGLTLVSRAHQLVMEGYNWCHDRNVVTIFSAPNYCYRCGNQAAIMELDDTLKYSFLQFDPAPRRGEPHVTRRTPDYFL
Test readout: binding result

PTPA M294K (natural protein) MAEGERQPPPDSSEEAPPATQNFIIPKKEIHTVPDMGKWKRSQAYADYIGFILTLNEGVKGKKLTFEYRVSEAIEKLVALLNTLDRWIDETPPVDQPSRFGNKAYRTWYAKLDEEAENLVATVVPTHLAAAVPEVAVYLKESVGNSTRIDYGTGHEAAFAAFLCCLCKIGVLRVDDQIAIVFKVFNRYLEVMRKLQKTYRMEPAGSQGVWGLDDFQFLPFIWGSSQLIDHPYLEPRHFVDEKAVNENHKDYMFLECILFITEMKTGPFAEHSNQLWNISAVPSWSKVNQGLIRKYKAECLEKFPVIQHFKFGSLLPIHPVTSG ... binds
